Test system: NCI-H460 lung
Outcome codes: active, inactive

> print(dat)
                                    molecule  categorylabel
 1  CCCCn1c2cc(OCc3cn(-c4ccc(Cl)cc4)nn3)ccc2c2ccnc(C)c21       inactive
 2  Cc1ccc(C(CN(C)C)C(=O)c2ccccc2)cc1 (stereo not given)       inactive
 3      Nc1ccccc1C#C/C=C\C#Cc1ccccc1C(F)(F)F       inactive
 4  CN(C)CCCn1c2c(c3cnccc3c1=O)C(=O)c1ccccc1-2         active
 5  COc1ccc(-c2cc(-c3ccc(OC)c(OC)c3)nc(SCCCC(=O)NO)n2)cc1       inactive
 6  CC1=C([Se]CC(OC(=O)CC[Se]c2ccccc2)C(=O)NCCCCCC(=O)OCc2ccccc2)C(=O)c2ccccc2C1=O (stereo not given)       inactive
 7  COc1ccccc1-[n+]1cc(-c2ccc(-c3ccccc3)cc2)n2c1CCCCC2         active
 8  CCN(CC)c1ccc(/C=C\c2cc(C)c3cc(C)ccc3n2)cc1       inactive
 9  COc1ccc(/C=C/C(=O)c2cc3c(N)c(C(=O)Nc4ccccc4Cl)sc3nc2C)cc1       inactive
10            O=Cc1c(-c2cc(O)ccc2O)nc2sccn12       inactive

###

TGI: recorded values
Tested on: HL-60(TB) leukemia
testProtocol: NCI tumour cell line growth inhibition, 48 h
Where a SMILES comes first, the peptide text is derived from it.

compound	targetOrSystem	TGI
Cc1ccc2c(c1)nc(C(=O)c1ccco1)c(C(F)(F)F)[n+]2[O-]	HL-60(TB) leukemia	> 100 µM
N#CC(NNC(=O)c1ccccc1O)c1ccc(O)cc1 (stereo not given)	HL-60(TB) leukemia	74.9 µM
C=C1CN=C(Nc2ccc(F)cc2F)S1	HL-60(TB) leukemia	> 100 µM
CCC(C)C(NC(=O)C1CCCN1)C(=O)NC(C(=O)NCC(=O)NC(CC(N)=O)C(=O)NC(CC(C)C)C(=O)NC(CC(C)C)C(=O)NC(CCCCN)C(N)=O)C(C)C (stereo not given) (H-PIVGNLLK-NH2; configuration not given here)	HL-60(TB) leukemia	> 75 µM
CCCC[C@H]1C(=O)O[C@H](C)[C@H](NC(=O)c2cccc(NC=O)c2O)C(=O)O[C@@H](C)[C@@H]1OC(=O)CC(C)C	HL-60(TB) leukemia	34.2 µM
CCCCn1c2cc(OCc3cn(-c4ccc(Cl)cc4)nn3)ccc2c2ccnc(C)c21	HL-60(TB) leukemia	12.6 µM
c1ccc(Cc2nc3ccc(Nc4ncnc5ccccc45)cc3[nH]2)cc1	HL-60(TB) leukemia	> 25 µM
COc1ccc2c3c([nH]c2c1)-c1nc2ccccc2c(=O)n1CC3	HL-60(TB) leukemia	> 25 µM
CC1=C([Se]CC(OC(=O)CC[Se]c2ccccc2)C(=O)NCCCCCC(=O)OCc2ccccc2)C(=O)c2ccccc2C1=O (stereo not given)	HL-60(TB) leukemia	8.25 µM
N#CC(=S)Nc1cccc(Cl)c1	HL-60(TB) leukemia	70.4 µM

###

Test system: UACC-257 melanoma
testProtocol: NCI tumour cell line growth inhibition, 48 h; in the data active = GI50 below about 0.43 µM; inactive = the rest
Outcome codes: 1 (active), -1 (inactive)

> print(dat)
                                   compound     targetorsystem  categorylabel
1  Cc1ccc(C(=O)Nc2ccc(CN3CCN(C)CC3)c(C(F)(F)F)c2)cc1C#Cc1cnc(N)cc1C#N  UACC-257 melanoma              1
2  C[C@@H]1C=C(CCCCCCCCCCC[C@H](O)[C@@H]2CCC(=O)O2)C(=O)O1  UACC-257 melanoma             -1
3  CC12CCC3C(CC=C4CC(O)CCC43C)C1C/C(=C\N1CCCC1)C2=O (stereo not drawn)  UACC-257 melanoma             -1

This collection of values is drawn from PubChem BioAssay (NCI).
